# Measured Target: IMP-1 (Imipenemase-1) (Serratia marcescens)
# Sequence (P52699 19-246, looked up, species assumed): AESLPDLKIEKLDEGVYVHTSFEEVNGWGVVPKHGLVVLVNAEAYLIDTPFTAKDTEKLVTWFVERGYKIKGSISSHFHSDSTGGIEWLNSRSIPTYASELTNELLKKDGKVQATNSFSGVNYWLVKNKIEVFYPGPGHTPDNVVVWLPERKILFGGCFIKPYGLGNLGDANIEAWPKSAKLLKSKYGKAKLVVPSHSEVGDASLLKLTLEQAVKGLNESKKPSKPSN
# Measurement Description: Metallo-β-lactamase enzyme inhibition, standard assay protocol
Property Label: pIC50
Keep in mind that pIC50 stands for -log10 of concentration in molar terms.

Prompt: Please report pIC50 for the following compound: C=C(C)c1csc2c(-c3ccc(F)cc3)c(C(=O)O)[nH]c12 [Example 6]
Completion: 6.30

Prompt: Please report pIC50 for the following compound: CC(C)c1csc2c(-c3ccc(F)cc3)c(C(=O)O)[nH]c12 [Example 12]
Completion: 7.30

Prompt: Please report pIC50 for the following compound: O=C(O)c1[nH]c2c(Br)csc2c1-c1cc(Cl)cc(Cl)c1 [Example 1]
Completion: 6.00

Prompt: Please report pIC50 for the following compound: O=C(O)c1[nH]c2c(C3CC3)csc2c1-c1cc(Cl)cc(Cl)c1 [Example 2]
Completion: 7.10

Prompt: Please report pIC50 for the following compound: O=C(O)c1[nH]c2c(C3CC3)csc2c1-c1ccc(F)cc1 [Example 13]
Completion: 6.40

Prompt: Please report pIC50 for the following compound: NS(=O)(=O)c1ccc(-c2c(C(=O)O)[nH]c3c(Br)csc23)cc1 [Example 14]
Completion: 5.90

Prompt: Please report pIC50 for the following compound: O=C(O)c1[nH]c2c(Br)csc2c1-c1ccc(F)cc1 [Example 4]
Completion: 5.60

Prompt: Please report pIC50 for the following compound: O=C(O)c1[nH]c2c(-c3ccc(F)cc3)csc2c1-c1ccc(F)cc1 [Example 5]
Completion: 5.60

Prompt: Please report pIC50 for the following compound: CC(=O)Nc1cccc(-c2c(C(=O)O)[nH]c3c(Br)csc23)c1 [Example 9]
Completion: 4.90
